Data provenance is patent US20130133089A1.

Biological target: T1, Recombinant human leptin binding domain (hLBD) (human, UniProt P48357 428-635, biotinylated with Sulfo-NHS-LC-Biotin in the yeast display assays; not labelled when immobilized in the plate binding assay)
T1 construct: CRH2 sub-domain of the leptin receptor; Prepared in the applicants' laboratory; also called soluble human leptin receptor; CHR2
T1 sequence (looked up): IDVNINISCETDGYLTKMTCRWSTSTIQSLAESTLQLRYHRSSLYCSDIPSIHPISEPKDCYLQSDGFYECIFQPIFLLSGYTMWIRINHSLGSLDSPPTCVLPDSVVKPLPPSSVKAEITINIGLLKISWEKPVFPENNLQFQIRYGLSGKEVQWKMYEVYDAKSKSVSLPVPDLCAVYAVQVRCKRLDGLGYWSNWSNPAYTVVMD
Experiment: yeast display, flow cytometry titration with biotinylated hLBD (FIG. 4A)
Excerpt: Those 7 mouse leptin mutants were selected for preparation of respectively mutated leptins expressed in E. coli.
Exercise: state measured Kd for each of the binders provided.
Answers are plain numbers, in nM.

Below are worked cases with known answers.
get_value(item= yeast-displayed mouse leptin clone H7 (K11R, Q34R, T37A, F92C, S97Y, I136V) (ligand, UniProt P41160 22-167, looked up, not shown: large carriers; small tags and cut ends, mature; also called H18; H27) VPIQKVQDDTRTLIKTIVTRINDISHTQSVSAKRRVAGLDFIPGLHPILSLSKMDQTLAVYQQVLTSLPSQNVLQIANDLENLRDLLHLLACSKSCYLPQTSGLQKPESLDGVLEASLYSTEVVALSRLQGSLQDVLQQLDVSPEC , readout=Kd) returns 126

Sure, the documented Kd for yeast-displayed mouse leptin clone H17 (S109F) (ligand, UniProt P41160 22-167, looked up, not shown: large carriers; small tags and cut ends, mature) VPIQKVQDDTKTLIKTIVTRINDISHTQSVSAKQRVTGLDFIPGLHPILSLSKMDQTLAVYQQVLTSLPSQNVLQIANDLENLRDLLHLLAFSKSCSLPQTSGLQKPEFLDGVLEASLYSTEVVALSRLQGSLQDILQQLDVSPEC is 620

What the record says about yeast-displayed mouse leptin clone H12 (S97Y) (ligand, UniProt P41160 22-167, looked up, not shown: large carriers; small tags and cut ends, mature; also called H20; H24) VPIQKVQDDTKTLIKTIVTRINDISHTQSVSAKQRVTGLDFIPGLHPILSLSKMDQTLAVYQQVLTSLPSQNVLQIANDLENLRDLLHLLAFSKSCYLPQTSGLQKPESLDGVLEASLYSTEVVALSRLQGSLQDILQQLDVSPEC : Kd is 130

Then this binder:
Entry yeast-displayed mouse leptin clone H22 (T12I) (ligand, UniProt P41160 22-167, looked up, not shown: large carriers; small tags and cut ends, mature) VPIQKVQDDTKILIKTIVTRINDISHTQSVSAKQRVTGLDFIPGLHPILSLSKMDQTLAVYQQVLTSLPSQNVLQIANDLENLRDLLHLLAFSKSCSLPQTSGLQKPESLDGVLEASLYSTEVVALSRLQGSLQDILQQLDVSPEC — recorded Kd = 122
